# experiment: HFF cytotoxicity dose response (cell counting kit-8)
# applied-conditions: human, confluent human foreskin fibroblast (HFF) cells
readout-label: IC50 at 48 h
Phrase the answer as number then unit, nothing more needed.

Query string: Fill in the blank: the reported IC50 at 48 h of COC(=O)C1=CC(O)C(O)C(O)C1N1CC(O)C(OC(C)=O)C1Cc1ccc(OC)cc1 (stereo not shown) is ____.
Result string: 28.5 µM
